- System: A498 renal
- experimental-details: NCI-60 one-dose screen, 48 h (100 = growth as untreated, 0 = no growth, -100 = all killed)
- condition: 10 µM unless noted
The panel holds about 83,000 compounds, 20% with a hit somewhere; the sample as a whole holds those more often.
// assign YES if growth falls strictly below 90%, else NO (ties count as NO)

{"compound": "CCN(CC)CCCC(Nc1c2ccc(Cl)cc2nc2ccc(OC)cc12)c1ccc(Cl)cc1 (centres undefined)", "measured-target": "A498 renal", "category-label": "YES"}
{"compound": "CCCCCCCCN1C(=O)/C(=c2\\sc3n(c2=O)C2C(NN=3)N(CC)C(=O)N2CC)c2ccccc21 (centres undefined)", "measured-target": "A498 renal", "category-label": "YES"}
{"compound": "Cc1ccc2nc3c(cc2c1)CSc1nnc(-c2ccc[nH]c2=S)n1N3", "measured-target": "A498 renal", "category-label": "NO"}
{"compound": "O=C(N/N=C/c1ccncc1)c1ccccc1Nc1cccc(C(F)(F)F)c1", "measured-target": "A498 renal", "category-label": "YES"}
{"compound": "Clc1ccc(C2CC(c3cccc(Nc4ccncc4)c3)=NN2c2cc(Cl)cc(Cl)c2)cc1 (centres undefined)", "measured-target": "A498 renal", "category-label": "YES"}
{"compound": "O=S(=O)(NCCCNc1nccc(-c2c(-c3ccccc3)nc3occn23)n1)c1ccc(Cl)cc1", "measured-target": "A498 renal", "category-label": "YES"}
{"compound": "CN1CCN(c2ccc(NC3=C(Cl)C(=O)c4ncccc4C3=O)cc2C#N)CC1", "measured-target": "A498 renal", "category-label": "YES"}
{"compound": "O=c1nc2n(nc1/C=C/c1ccco1)CC(c1ccc(Cl)cc1)=NN2", "measured-target": "A498 renal", "category-label": "NO"}
{"compound": "C=C(C)[C@@H]1CC[C@]2(C(=O)NCCCN(CCC#N)CCC#N)CC[C@]3(C)[C@H](CC[C@@H]4[C@@]5(C)CCC(=O)C(C)(C)[C@@H]5CC[C@]43C)[C@@H]12", "measured-target": "A498 renal", "category-label": "NO"}
{"compound": "O=S(=O)(c1cccc(NC2=Nc3cccc4cccc2c34)c1)N1CCCC1", "measured-target": "A498 renal", "category-label": "YES"}
{"compound": "COc1cc(C(=O)/C=C/c2c(C)n([O-])c3ccc(Cl)cc3[n+]2=O)cc(OC)c1OC", "measured-target": "A498 renal", "category-label": "NO"}
{"compound": "CC1=CC2(C)/C=C(C)/C=C\\CC(O)/C=C3/C=CC(=C4C(=O)OC2(CC1C)C4=O)OC3 (centres undefined)", "measured-target": "A498 renal", "category-label": "YES"}
{"compound": "CCOC(=O)c1c(SC)nn(-c2cc(=O)[nH]c3ccc(Br)cc23)c1N", "measured-target": "A498 renal", "category-label": "NO"}
{"compound": "CCN(CC)S(=O)(=O)c1cccc([N+](=O)[O-])c1", "measured-target": "A498 renal", "category-label": "YES"}
{"compound": "CCOC(=O)N1CCc2c(sc3nc4nc[nH]n4c(=O)c23)C1", "measured-target": "A498 renal", "category-label": "YES"}
